# SUBJECT OF TEST: Pimelobacter simplex PinR (AIY20223.2; SEQ ID NO: 1), his-tagged (AIY-his6)
# ASSAY NOTES: QD-FRET steroid sensor (QD-PinR + DNA-Cy5), steroid-induced TF-DNA unbinding
# Format: biochemical
# CONDITION SET: DNA 4; QD/TF/DNA 1/4/9; read-out: X0
# Protocol: Fluorescent spectra were analyzed using MATLAB (Mathworks) and were fitted with a sum of 2 Gaussians (D=QD: FWHM=27 nm, λmax=607 nm; A=DNA-Cy5: FWHM=40 nm, λmax=669 nm). The area of each Gaussian was extracted and FD and FA are obtained respectively for the fluorescence of QD (donor) and Cy5 (acceptor). […] The cross-reactivity of progesterone regarding the different steroids was calculated with the following equation: […]
QUANTITY: IC50 (nM)
Supply the numeric figure in nM, leaving out any unit text.

Field IC50 (entry CC(=O)[C@H]1CC[C@H]2[C@@H]3CCC4=CC(=O)CC[C@]4(C)[C@H]3CC[C@]12C ) reads 140
